- tgt: IDH1 R132H enzyme (Homo sapiens (Human), UniProt O75874, R132H)
- Sequence (O75874 whole entry R132H): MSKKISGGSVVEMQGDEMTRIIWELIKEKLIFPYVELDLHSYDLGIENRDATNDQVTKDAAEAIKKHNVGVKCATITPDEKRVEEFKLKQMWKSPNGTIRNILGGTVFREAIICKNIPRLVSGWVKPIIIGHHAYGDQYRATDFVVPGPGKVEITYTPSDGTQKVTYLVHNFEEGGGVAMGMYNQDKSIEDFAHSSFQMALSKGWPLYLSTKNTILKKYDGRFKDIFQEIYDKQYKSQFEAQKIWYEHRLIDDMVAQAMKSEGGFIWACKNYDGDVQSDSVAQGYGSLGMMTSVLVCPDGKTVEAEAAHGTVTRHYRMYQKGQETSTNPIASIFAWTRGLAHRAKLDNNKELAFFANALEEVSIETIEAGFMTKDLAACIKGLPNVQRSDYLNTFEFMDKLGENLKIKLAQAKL
- assayOverview: Mutant IDH1 R132H biochemical assay
- assayConditions: NADPH consumption, luminescent readout; 1.5 nM enzyme, 1 μM NADPH, 250 μM α-KG, 30 minutes, 32° C.
endpoint: IC50 (µM)
Report the figure in µM without appending any unit label.

Data request: Look at this compound and give its reported IC50. CC(C)Oc1ccc(Cc2nc3cc(C(=O)O)ccc3n2[C@@H]2C[C@H](C)CC(C)(C)C2)cc1 (stereo in doubt) [Example 2-32]
Data returned: 0.25

Data request: Suppose we examine the compound COC(=O)c1ccc2c(c1)nc(-c1ccc(OC(F)(F)F)cc1)n2[C@H]1C[C@@H](C)CC(C)(C)C1 (single isomer, unassigned) [Example 2-1-1] ; what IC50 value has been reported?
Data returned: 1

Data request: // lookup IC50 for COC(=O)c1ccc2c(c1)nc(Cc1ccc(C(F)(F)F)cc1)n2[C@H]1C[C@@H](C)CC(C)(C)C1 (racemic)
Data returned: 1.5

Data request: Consider the compound shown here: C[C@H]1C[C@@H](n2c(Cc3cn(C)c4ccccc34)nc3cc(C(=O)O)ccc32)CC(C)(C)C1 (stereo in doubt) What is its recorded IC50?
Data returned: 6.6

* * *

- tgt: IDH1 R132H enzyme (Homo sapiens (Human), UniProt O75874, R132H)
- assayOverview: Mutant IDH1 R132H biochemical assay
- assayConditions: NADPH consumption, luminescent readout; 1.5 nM enzyme, 1 μM NADPH, 250 μM α-KG, 30 minutes, 32° C.
endpoint: IC50 (µM)
Give the value, in units of µM, as a plain number.

Data request: # query: IC50 | item COC(=O)c1cc2nc(Cc3ccc(OC(F)(F)F)cc3)n([C@H]3C[C@@H](C)CC(C)(C)C3)c2cc1OC(C)C (single isomer, unassigned) [Example 2-20-1] | system: IDH1 R132H enzyme (Homo sapiens (Human), UniProt O75874, R132H)
Data returned: 1.3

Data request: Record COC(=O)c1ccc2c(c1)nc(Cc1ccc(OC(F)(F)F)cc1)n2[C@H]1C[C@@H](C)CC(C)(C)C1 (racemic) [Example 2-3] : what is its IC50 with IDH1 R132H enzyme (Homo sapiens (Human), UniProt O75874, R132H)?
Data returned: 0.67

Data request: Param readout = IC50; param system = IDH1 R132H enzyme (Homo sapiens (Human), UniProt O75874, R132H); param query = C[C@H]1C[C@@H](n2c(Cc3ccc(F)cc3)nc3cc(C(=O)O)ccc32)CC(C)(C)C1 (stereo in doubt) ; response: value
Data returned: 1.3

Data request: Which IC50 is reported with IDH1 R132H enzyme (Homo sapiens (Human), UniProt O75874, R132H) for this entry: COC(=O)c1ccc2c(c1)nc(Cc1ccc(C(C)(C)C)cc1)n2[C@H]1C[C@@H](C)CC(C)(C)C1 (racemic) ?
Data returned: 1.4
